Test summary: folding stability dG unfold from chymotrypsin proteolysis; higher = more stable
Each entry gets F if its folding stability dG unfold stays under 1 kcal/mol, and T if its folding stability dG unfold is 1 kcal/mol or above.

Worked examples, 5 sequences total:
- Residue codes: "SGLAPGEVVPEKFEREITDPETGKKYKVEVTTEIAPENPVRRVTVTTTPPDGTTTTTEEVIPPGEEYTLESA [r9_88_JUSTAS]"
  Label value: "F"
- Residue codes: "SAGGMVEVTYDPETGTLTILLPSPSGTLGPEAVEAAARLIRELYPEAEVEVEPLPDNTVRLRVRFPGGSAGG [r13_291_TrMRF]"
  Label value: "T"
- Residue codes: "SAGGSAGGSAGMTKTITVGDKKVNVTITPLPTPTTKVTITFPDGSTKTVTLPAGTPITLGSAGGSAGGSAGG [r11_525_JUSTAS]"
  Label value: "F"
- Residue codes: "KIVILEPGEEAELPGVKVIPVDGLRIREVEVNGKKILVIEMSEEEIENGNEEELEKLRELAEELGADEVILS [r1_438_TrROS_Hall]"
  Label value: "T"
- Residue codes: "SAGGSAGGSPIEEIVAELKVPPGTTVKFPDGSTITLNSREDLLKLAKEGYPPEKLKDITVEAVSAGGSAGGS [r12_430_JUSTAS]"
  Label value: "T"

In plain terms: is recorded folding stability dG unfold at least 1 kcal/mol for SAGGSAGGIKPGETVLIVFKDKPEILVFPPGMSEEERKAFPGAKFILVKVEKPELTEEELKALESAGGSAGG [r6_830_TrROS_Hall] ?
F

In plain terms: is recorded folding stability dG unfold at least 1 kcal/mol for SAGGMPPDARKLIREIAQDFGMSDIEPDEEGHVRINMPNPMMIQVDVENGEPKIKIYNNNKWREIPISAGGS [r16_296_TrROS] ?
F
